Consider the following molecules and their measured growth readings.
Test system: TK-10 renal
assay: NCI-60 one-dose screen, 48 h (100 = growth as untreated, 0 = no growth, -100 = all killed)
assay conditions: 10 µM unless noted
Compounds without any hit were thinned out: in the full panel of roughly 83,000, 20% have a hit.
parameter measured: growth (%)

                                   molecule  numeric_readout
0  CC(=O)OC1CC2CCC1(C)C2(C)C (stereo unspecified)              106
1  O=C(c1ccccc1)N(CCCl)C(=O)N(CCCl)C(=O)c1ccccc1              103
2  CCOc1cc(F)c([N+](=O)[O-])cc1[N+](=O)[O-]             12.5
3  CCOc1ccc(Nc2nc3c(s2)C(=O)c2ccccc2C3=O)cc1              127
4         O=[N+]([O-])C=C(c1ccccc1)c1ccccc1             84.8
5         CN1CCC(c2ccccc2)(c2ccccc2)C(=O)C1             76.4
